- System: Interstitial collagenase (Homo sapiens)
- Sequence (whole entry): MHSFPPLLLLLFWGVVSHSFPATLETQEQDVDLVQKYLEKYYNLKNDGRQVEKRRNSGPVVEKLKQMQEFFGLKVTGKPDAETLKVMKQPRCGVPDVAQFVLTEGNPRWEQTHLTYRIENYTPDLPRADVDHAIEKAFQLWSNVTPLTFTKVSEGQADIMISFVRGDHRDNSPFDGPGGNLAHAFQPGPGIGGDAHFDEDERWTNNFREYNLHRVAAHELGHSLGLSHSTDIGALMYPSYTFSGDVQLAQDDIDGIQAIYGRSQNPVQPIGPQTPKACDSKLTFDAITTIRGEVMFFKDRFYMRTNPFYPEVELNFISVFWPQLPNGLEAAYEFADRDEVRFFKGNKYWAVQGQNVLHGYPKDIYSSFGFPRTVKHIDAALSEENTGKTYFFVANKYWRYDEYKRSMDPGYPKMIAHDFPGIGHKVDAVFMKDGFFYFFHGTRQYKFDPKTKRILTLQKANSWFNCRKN
- Assay text: In vitro inhibition of human fibroblast collagenase at a 10 uM.
Property measured: inhibition (%)
# output: bare number, implied unit %

* CC(C)C[C@H](NC(=O)C(CCc1ccccc1)CP(=O)(O)CNC(=O)[C@H](C)NC(=O)C1CCCN1C(=O)c1ccccc1)C(=O)Nc1ccccc1 (some centres undefined) | 39

input: Tell me the measured inhibition of CC(C)C[C@H](NC(=O)C(CCc1ccccc1)CP(=O)(O)CNC(=O)[C@H](CC(N)=O)NC(=O)OCc1ccccc1)C(=O)Nc1ccccc1 (some centres undefined) , please.
output: 14

input: For the compound shown here, CC(C)C[C@H](NC(=O)C(CCc1ccccc1)CP(=O)(O)CNC(=O)Cc1ccccc1)C(=O)Nc1ccccc1 (some centres undefined) , give the reported inhibition.
output: 0

input: Find the recorded inhibition belonging to CC(C)C[C@H](NC(=O)C(CCc1ccccc1)CP(=O)(O)CNC(=O)[C@H](CCC(=O)O)NC(=O)OCc1ccccc1)C(=O)Nc1ccccc1 (some centres undefined) and report it.
output: 12

input: Field request: inhibition | item: CC(=O)N[C@@H](C)C(=O)N[C@@H](C)P(=O)(O)CC(CCc1ccccc1)C(=O)N[C@@H](CC(C)C)C(=O)Nc1ccccc1 (some centres undefined)
output: 0

input: Requested read-out: inhibition. Entry: CC(C)C[C@H](NC(=O)C(CCc1ccccc1)CP(=O)(O)CNC(=O)[C@H](CCCCN)NC(=O)OCc1ccccc1)C(=O)Nc1ccccc1 (some centres undefined)
output: 18

input: Bench note: what inhibition did CCCC[C@H](NC(=O)OCc1ccccc1)C(=O)NCP(=O)(O)CC(CCc1ccccc1)C(=O)N[C@@H](CC(C)C)C(=O)Nc1ccccc1 (some centres undefined) show?
output: 0

input: Bench note: what inhibition did CC(=O)N1CCCC1C(=O)N[C@@H](C)C(=O)NCP(=O)(O)CC(CCc1ccccc1)C(=O)N[C@@H](CC(C)C)C(=O)Nc1ccccc1 (some centres undefined) show?
output: 60

input: Would you kindly share the measured inhibition for CC(C)CC(NC(=O)C(CCc1ccccc1)CP(=O)(O)CNC(=O)CN1C(=O)c2ccccc2C1=O)C(=O)Nc1ccccc1 (centres undefined) ?
output: 14

input: Look up inhibition for this compound: CC(C)C[C@H](NC(=O)C(CCc1ccccc1)CP(=O)(O)[C@H](C)NC(=O)CN1C(=O)c2ccccc2C1=O)C(=O)Nc1ccccc1 (some centres undefined)
output: 0
